Biological target: KCNH2-3.1 (Kv11.1-3.1 containing potassium channel; hERG 3.1) (Homo sapiens, UniProt Q12809)
Sequence (Q12809 1-1063 isoform Q12809-7): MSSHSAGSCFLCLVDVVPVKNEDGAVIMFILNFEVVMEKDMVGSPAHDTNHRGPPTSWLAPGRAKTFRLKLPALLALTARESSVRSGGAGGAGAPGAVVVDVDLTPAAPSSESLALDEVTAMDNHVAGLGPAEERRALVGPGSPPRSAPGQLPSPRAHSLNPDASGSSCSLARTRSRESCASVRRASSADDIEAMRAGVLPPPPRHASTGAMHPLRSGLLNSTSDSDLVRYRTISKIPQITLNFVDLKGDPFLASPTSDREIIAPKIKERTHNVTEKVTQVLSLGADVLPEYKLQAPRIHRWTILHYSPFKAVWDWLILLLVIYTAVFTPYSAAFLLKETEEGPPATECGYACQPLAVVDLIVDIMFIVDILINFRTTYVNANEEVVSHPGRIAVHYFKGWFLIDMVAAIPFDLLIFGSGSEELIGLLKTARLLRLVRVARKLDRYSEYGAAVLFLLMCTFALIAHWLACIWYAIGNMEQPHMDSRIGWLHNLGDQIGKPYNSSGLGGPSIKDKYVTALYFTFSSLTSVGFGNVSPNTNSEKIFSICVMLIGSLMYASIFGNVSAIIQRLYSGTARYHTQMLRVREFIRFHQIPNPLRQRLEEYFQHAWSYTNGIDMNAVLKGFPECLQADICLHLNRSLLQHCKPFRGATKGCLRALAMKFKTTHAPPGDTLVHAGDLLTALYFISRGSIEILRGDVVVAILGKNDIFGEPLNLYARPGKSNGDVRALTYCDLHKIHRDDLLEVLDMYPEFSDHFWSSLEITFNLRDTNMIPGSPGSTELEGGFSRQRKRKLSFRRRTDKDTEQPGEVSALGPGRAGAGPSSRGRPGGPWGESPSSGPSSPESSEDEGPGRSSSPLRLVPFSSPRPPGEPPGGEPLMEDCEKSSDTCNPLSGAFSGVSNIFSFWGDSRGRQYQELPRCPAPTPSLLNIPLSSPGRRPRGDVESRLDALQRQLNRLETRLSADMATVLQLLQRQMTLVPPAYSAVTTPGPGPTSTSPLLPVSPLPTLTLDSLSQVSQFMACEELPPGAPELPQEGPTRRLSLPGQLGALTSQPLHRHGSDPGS
Assay: KCNH2-3.1 inhibition ion (thallium) flux assay, FluxOR
Details: U2OS cells transduced with hERG 3.1 Bacmam virus, 5 minutes compound incubation, read-out: Activity range (IC50)
pIC50: −log10 of the molar value. Counter-ions that a name gives are not always drawn.
In this section, each of the compounds is paired with its reported pIC50.
PROPERTY LABEL: pIC50

{"columns": ["COMPOUND", "PROPERTY LABEL", "RESULT"],
 "data": [
  ["CC1CCCN(CC(=O)Nc2ccc(N3CCCCCC3)cc2)C1 (stereo not drawn) [Example 15]", "pIC50", "5.00 to 5.70"],
  ["CC1CC(c2ccccc2)CCN1CC(=O)Nc1ccc(N2CCCCCC2)cc1 (mixture of isomers) [Example 19]", "pIC50", "5.70 to 6.30"],
  ["CC(C(=O)Nc1ccc(N2CCCCCC2)cc1)N1CCCCC1 (stereo not drawn) [Example 24]", "pIC50", "5.00 to 5.70"],
  ["O=C(CN1CCCOCC1)Nc1ccc(N2CCCCCC2)cc1 [Example 7, hydrochloride]", "pIC50", "5.00 to 5.70"],
  ["CN(CC(=O)Nc1ccc(N2CCCCCC2)nc1)C1CCCCC1 [Example 28]", "pIC50", "5.00 to 5.70"],
  ["O=C(CN1CCCC1)Nc1ccc(N2CCCCCC2)cc1 [Example 14, hydrochloride]", "pIC50", "5.00 to 5.70"],
  ["O=C(CNC1CCCCC1)Nc1ccc(N2CCCCCC2)nc1 [Example 27]", "pIC50", "5.00 to 5.70"],
  ["O=C(CCN1CCCCC1)Nc1ccc(N2CCCCCC2)cc1 [Example 23]", "pIC50", "5.00 to 5.70"],
  ["O=C(CN1CCCC(OCc2ccccc2)C1)Nc1ccc(N2CCCCCC2)cc1 (stereo not drawn) [Example 22]", "pIC50", "5.70 to 6.30"]
]}
